# Test system: 485176-168-R4-J1-PDC complex spheroid growth
# Experimental protocol: Anticancer human tumor 485176-168-R4-J1-PDC patient-derived pancreatic adenocarcinoma cell line growth inhibition [RAS]; active means viability on the fitted dose curve at most 10% of control; inactive means the rest
# Condition set: second compound 0.3 µM; first compound 0.0949 µM
Output constraint: value belongs to 1 for active, 0 for inactive

[ask] // outcome(item) with item = CC1(C)CCC(Nc2ncc(C(F)(F)F)c(-c3c[nH]c4c(P(C)(C)=O)c(C#N)ccc34)n2)CN1 (centres undefined) + CCn1c(-c2cccnc2C(C)OC)c2c3cc(ccc31)N1CCOC(CC(NC(=O)C(C(C)C)N(C)C(=O)C3(F)CCN(C(=O)C#CC(C)(C)N(C)C)CC3)C(=O)N3CCCC(N3)C(=O)OCC(C)(C)C2)C1
[reply] 0

[ask] Entry CCc1c2c(nc3ccc(O)cc13)-c1cc3c(c(=O)n1C2)COC(=O)[C@]3(O)CC + CCn1c(-c2cc(N3CCN(C)CC3)cnc2C(C)OC)c2c3cc(ccc31)-c1csc(n1)CC(NC(=O)C1CC1C)C(=O)N1CCCC(N1)C(=O)OCC(C)(C)C2 please
[reply] 0

[ask] Further, for CC1(C)CCC(Nc2ncc(C(F)(F)F)c(-c3c[nH]c4c(P(C)(C)=O)c(C#N)ccc34)n2)CN1 (centres undefined) + CCn1c(-c2cc(N3CCN(C)CC3)cnc2C(C)OC)c2c3cc(ccc31)-c1csc(n1)CC(NC(=O)C1CC1C)C(=O)N1CCCC(N1)C(=O)OCC(C)(C)C2 ?
[reply] 0

[ask] Same read-out for CCc1c2c(nc3ccc(O)cc13)-c1cc3c(c(=O)n1C2)COC(=O)[C@]3(O)CC + CCn1c(-c2cccnc2C(C)OC)c2c3cc(ccc31)N1CCOC(CC(NC(=O)C(C(C)C)N(C)C(=O)C3(F)CCN(C(=O)C#CC(C)(C)N(C)C)CC3)C(=O)N3CCCC(N3)C(=O)OCC(C)(C)C2)C1 ?
[reply] 1

* * *

For each entry below, report its IC50 value.
# System: 485176-168-R4-J1-PDC complex spheroid growth
# Experimental protocol: Anticancer human tumor 485176-168-R4-J1-PDC cell line growth inhibition [RAS];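 further: spheroids exposed to compounds for seven days before readout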
# Condition set: curve of first compound; second compound 0.000949 µM
Expressed in nM, but write only the number.

[ask] Field request: IC50 | item: CC1(O)CCCC1n1c(=O)c(C(F)F)cc2cnc(NC3CCN(S(C)(=O)=O)CC3)nc21 (centres undefined) + CCn1c(-c2cc(N3CCN(C)CC3)cnc2C(C)OC)c2c3cc(ccc31)-c1csc(n1)CC(NC(=O)C1CC1C)C(=O)N1CCCC(N1)C(=O)OCC(C)(C)C2
[reply] 1460

[ask] Then this compound: Nc1ccn(C2OC(CO)C(O)C2(F)F)c(=O)n1 (centres undefined) + CCn1c(-c2cc(N3CCN(C)CC3)cnc2C(C)OC)c2c3cc(ccc31)-c1csc(n1)CC(NC(=O)C1CC1C)C(=O)N1CCCC(N1)C(=O)OCC(C)(C)C2
[reply] 17

* * *

# Test system: 485176-168-R4-J1-PDC complex spheroid growth
# Experimental protocol: Anticancer human tumor 485176-168-R4-J1-PDC cell line growth inhibition [RAS];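 further: spheroids exposed to compounds for seven days before readout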;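 on viability, T/C: luminescence viability expressed relative to DMSO vehicle wells set as 100%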
# Condition set: second compound 0.000949 µM; first compound 10 µM; stronger effect = lower value
Measured quantity: viability, T/C (%)
Response body: numeric value in %, unit text excluded.

[ask] Record request: viability, T/C value, item CC1(O)CCCC1n1c(=O)c(C(F)F)cc2cnc(NC3CCN(S(C)(=O)=O)CC3)nc21 (centres undefined) + CCn1c(-c2cccnc2C(C)OC)c2c3cc(ccc31)N1CCOC(CC(NC(=O)C(C(C)C)N(C)C(=O)C3(F)CCN(C(=O)C#CC(C)(C)N(C)C)CC3)C(=O)N3CCCC(N3)C(=O)OCC(C)(C)C2)C1
[reply] 4.58

[ask] Entry CCC(CC)c1cc(NC2CCC(N)C2)n2nccc2n1 (centres undefined) + CCn1c(-c2cc(N3CCN(C)CC3)cnc2C(C)OC)c2c3cc(ccc31)-c1csc(n1)CC(NC(=O)C1CC1C)C(=O)N1CCCC(N1)C(=O)OCC(C)(C)C2 please
[reply] 0.46

[ask] Again, but for Cc1nc(N2CCC3(CC2)COC(C)C3N)c(CO)nc1Sc1ccnc(N)c1Cl (centres undefined) + CCn1c(-c2cc(N3CCN(C)CC3)cnc2C(C)OC)c2c3cc(ccc31)-c1csc(n1)CC(NC(=O)C1CC1C)C(=O)N1CCCC(N1)C(=O)OCC(C)(C)C2
[reply] 75.7

[ask] Then C[C@@H](NC(=O)c1ncnc(N)c1Cl)c1ncc(C(=O)Nc2cc(C(F)(F)F)c(Cl)cn2)s1 + CCn1c(-c2cc(N3CCN(C)CC3)cnc2C(C)OC)c2c3cc(ccc31)-c1csc(n1)CC(NC(=O)C1CC1C)C(=O)N1CCCC(N1)C(=O)OCC(C)(C)C2 ?
[reply] 83.8

* * *

# Tested on: 485176-168-R4-J1-PDC complex spheroid growth
# Experimental protocol: Anticancer human tumor 485176-168-R4-J1-PDC cell line growth inhibition [RAS];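 further: spheroids exposed to compounds for seven days before readout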
# Condition set: curve of first compound; second compound 0.000949 µM
# Text: RAS pathway inhibitors in Combinations in Complex Spheroids A high-throughput screen of multi-cell type tumor spheroids was designed to identify active combinations of RAS pathway inhibitors and targeted small molecules. Complex spheroids include a stromal component modeled by human endothelial cells (HUVEC) and fibroblasts modeled by human mesenchymal stem cells (MSCs). […] Compounds. […] If the clinical Cmax for an agent had not been determined, the highest concentration tested was 10 microM. […]
Measured quantity: IC50 (µM)
Dear colleague, please return just the value in µM, with no unit written.

[ask] # value lookup — system 485176-168-R4-J1-PDC complex spheroid growth, readout IC50, item CC1(O)CCCC1n1c(=O)c(C(F)F)cc2cnc(NC3CCN(S(C)(=O)=O)CC3)nc21 (configuration not stated) + CCn1c(-c2cccnc2C(C)OC)c2c3cc(ccc31)N1CCOC(CC(NC(=O)C(C(C)C)N(C)C(=O)C3(F)CCN(C(=O)C#CC(C)(C)N(C)C)CC3)C(=O)N3CCCC(N3)C(=O)OCC(C)(C)C2)C1
[reply] 3.41

* * *

# System: 485176-168-R4-J1-PDC complex spheroid growth
# Experimental protocol: Anticancer human tumor 485176-168-R4-J1-PDC cell line growth inhibition [RAS];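 further: spheroids exposed to compounds for seven days before readout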;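 on viability, T/C: luminescence viability expressed relative to DMSO vehicle wells set as 100%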
# Condition set: second compound 0.0316 µM; first compound 0.01 µM; stronger effect = lower value
# Text: RAS pathway inhibitors in Combinations in Complex Spheroids A high-throughput screen of multi-cell type tumor spheroids was designed to identify active combinations of RAS pathway inhibitors and targeted small molecules. Complex spheroids include a stromal component modeled by human endothelial cells (HUVEC) and fibroblasts modeled by human mesenchymal stem cells (MSCs). […] Compounds. […] If the clinical Cmax for an agent had not been determined, the highest concentration tested was 10 microM. […]
Exercise: for every item that follows, state its recorded viability, T/C.
Field: numeric (%). Do not append units.

[ask] viability, T/C lookup needed for CCN1CCN(Cc2ccc(Nc3ncc(F)c(-c4cc(F)c5nc(C)n(C(C)C)c5c4)n3)nc2)CC1 + C#Cc1c(F)ccc2cc(O)cc(-c3ncc4c(N5CC6CCC(C5)N6)nc(OCC56CCCN5CC(F)C6)nc4c3F)c12 , thanks.
[reply] 83.4

[ask] Please answer likewise for CC(C)n1nc(-c2ccc3oc(N)nc3c2)c2c(N)ncnc21 + C#Cc1c(F)ccc2cc(O)cc(-c3ncc4c(N5CC6CCC(C5)N6)nc(OCC56CCCN5CC(F)C6)nc4c3F)c12
[reply] 82.3

[ask] And for Nc1ccn(C2OC(CO)C(O)C2(F)F)c(=O)n1 (stereo not drawn) + C#Cc1c(F)ccc2cc(O)cc(-c3ncc4c(N5CC6CCC(C5)N6)nc(OCC56CCCN5CC(F)C6)nc4c3F)c12 ?
[reply] 80.9

* * *

Answer each item with its documented pIC50.
# System: 485176-168-R4-J1-PDC complex spheroid growth
# Experimental protocol: Anticancer human tumor 485176-168-R4-J1-PDC cell line growth inhibition [RAS];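 further: spheroids exposed to compounds for seven days before readout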
# Condition set: curve of first compound; second compound 10 µM
# reply with the number alone; pIC50 is -log10 of concentration in mol/L

[ask] Record request: pIC50 value, item CC(C)n1nc(-c2ccc3oc(N)nc3c2)c2c(N)ncnc21 + C#Cc1c(F)ccc2cc(O)cc(-c3ncc4c(N5CC6CCC(C5)N6)nc(OCC56CCCN5CC(F)C6)nc4c3F)c12
[reply] 7.63

[ask] For CC(C)NCC(C(=O)N1CCN(c2ncnc3c2C(C)CC3O)CC1)c1ccc(Cl)cc1 (stereo not given) + C#Cc1c(F)ccc2cc(O)cc(-c3ncc4c(N5CC6CCC(C5)N6)nc(OCC56CCCN5CC(F)C6)nc4c3F)c12 then?
[reply] 5.82

* * *

# Test system: 485176-168-R4-J1-PDC complex spheroid growth
# Experimental protocol: Anticancer human tumor 485176-168-R4-J1-PDC cell line growth inhibition [RAS];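 further: spheroids exposed to compounds for seven days before readout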
# Condition set: curve of first compound; second compound 0.03 µM
Measured quantity: pIC50
Remember, pIC50 is on a log scale: it is -log10 of the molar concentration.

[ask] For the molecule CCC(CC)c1cc(NC2CCC(N)C2)n2nccc2n1 (centres undefined) + CCn1c(-c2cccnc2C(C)OC)c2c3cc(ccc31)N1CCOC(CC(NC(=O)C(C(C)C)N(C)C(=O)C3(F)CCN(C(=O)C#CC(C)(C)N(C)C)CC3)C(=O)N3CCCC(N3)C(=O)OCC(C)(C)C2)C1 , what pIC50 is on record?
[reply] 5.97

[ask] And then CC1(O)CCCC1n1c(=O)c(C(F)F)cc2cnc(NC3CCN(S(C)(=O)=O)CC3)nc21 (centres undefined) + CCn1c(-c2cccnc2C(C)OC)c2c3cc(ccc31)N1CCOC(CC(NC(=O)C(C(C)C)N(C)C(=O)C3(F)CCN(C(=O)C#CC(C)(C)N(C)C)CC3)C(=O)N3CCCC(N3)C(=O)OCC(C)(C)C2)C1 , what is it?
[reply] 5.48

From: PubChem BioAssay AID2060906
